Tested on: HepG2
Test: Hepatocyte toxicity
Format: cell-based, human
Conditions: HepG2
Text: As drugs that eliminate multiple stages of the parasite lifecycle will be critical components in global efforts to eliminate malaria, we were interested in knowing whether the compounds in our study had additional activities against either the liver and/or transmission stages of the parasite lifecycle. To determine this, we first evaluated the compounds in additional phenotypic assays. […]
Would you please tag the item YES when its Hepatocyte Toxicity is 8 µM or above, and NO when it is below?

Task item: Check if Hepatocyte Toxicity >= 8 µM (inclusive). Item: COC(=O)c1ccc(C2C3=C(O)CC(c4ccc(F)cc4)CC3=Nc3ccccc3N2C(=O)c2ccccc2)cc1 (centres unmarked) [MMV011438]
Reply: YES

Task item: Reported Hepatocyte Toxicity at or above 8 µM? CC(C)c1cccc(C(NC(=O)C2Cc3ccccc3CN2C(=O)c2cccc(N3CCOCC3)c2)C2CCCC2)c1 (centres unmarked) [MMV028038]
Reply: YES

Task item: Can FC(F)(F)c1cccc(Nc2nc3ccccc3nc2Nc2cccc(C(F)(F)F)c2)c1 [MMV665794] be said to have Hepatocyte Toxicity at or above 8 µM?
Reply: NO

Task item: Can Nc1ccc(-c2nc3cc(Oc4ccc(Oc5ccc6[nH]c(-c7ccc(N)cc7)nc6c5)cc4)ccc3[nH]2)cc1 [MMV011895] be said to have Hepatocyte Toxicity at or above 8 µM?
Reply: YES

Task item: Hi team, for COc1ccc(NC(=O)N2CCCCN3[C@H](CN)[C@H](c4ccc(C#Cc5ccccc5)cc4)[C@@H]3C2)cc1 [BRD1095] , is the recorded Hepatocyte Toxicity at or above 8 µM?
Reply: YES

Task item: Hepatocyte Toxicity >= 8 µM for CNCc1ccc2nc(-c3coc(Cc4cc(Cl)ccc4OCC(C)C)n3)[nH]c2c1.Cl.Cl [MMV026596] ?
Reply: YES

Task item: Check if Hepatocyte Toxicity >= 8 µM (inclusive). Item: COc1cc(C(=O)ON=C(N)Cc2cccc3ccccc23)cc(OC)c1OC [MMV666687]
Reply: YES

Task item: Is reported Hepatocyte Toxicity greater than or equal to 8 µM here: CCCOCc1cc(CN2CCN(c3cccc(Cl)c3)CC2)c(O)c2ncccc12 [MMV000787]
Reply: NO

Task item: Has O=C(NCC(CCCN1CCC(c2c[nH]c3ccccc23)CC1)c1ccccc1)Nc1ccc(Cl)c(Cl)c1 (centres unmarked) [MMV029272] a recorded Hepatocyte Toxicity greater than or equal to 8 µM?
Reply: NO

Task item: Tell me whether Hepatocyte Toxicity is at least 8 µM here: Brc1ccc(Nc2nc3ccccc3nc2Nc2ccc(Br)cc2)cc1 [MMV007224]
Reply: NO

Task item: Is Hepatocyte Toxicity for OC(CNC1CCCCC1)Cn1c2ccc(I)cc2c2cc(I)ccc21 (centres unmarked) [MMV665882] at or above 8 µM?
Reply: YES

Task item: Entry Cc1ccc(Oc2ncccc2C(=O)Cc2cccc3cccnc23)c(C)c1 [MMV020746] : is its Hepatocyte Toxicity no less than 8 µM?
Reply: YES

Task item: Evaluate COc1cc(-c2nc(-c3ccccc3)c(-c3ccccc3)[nH]2)ccc1OCCN(C)C [MMV027496] : Hepatocyte Toxicity at minimum 8 µM?
Reply: YES

Task item: Reported Hepatocyte Toxicity at or above 8 µM? CN(C)Cc1ccc(-c2cc3c(-c4ccc(CN(C)C)cc4)ccnc3[nH]2)cc1.O=C(O)C(F)(F)F [MMV022224]
Reply: NO

Task item: Could you tell me if the measured Hepatocyte Toxicity of CN(C)S(=O)(=O)c1cc(-c2ccc3nccc(-c4cccc(S(N)(=O)=O)c4)c3c2)cnc1N [MMV024038] reaches 8 µM or more?
Reply: NO

Task item: Form field: Hepatocyte Toxicity at least 8 µM? Entry: CCCCCCCN(Cc1ccc(OC(C)(C)C(=O)OCC)cc1)C(=O)Nc1ccc(Cl)cc1OCC [MMV021735]
Reply: YES

Task item: Is it the case that Cl.c1ccc2c(NCCCCCCNc3c4c(nc5ccccc35)CCCC4)c3c(nc2c1)CCCC3 [MMV019555] has Hepatocyte Toxicity reaching or exceeding 8 µM?
Reply: NO

Task item: Given c1cncc(-c2cc(N3CCC(CN4CCOCC4)CC3)nc(-c3ccncc3)n2)c1 [MMV668399] , state whether its Hepatocyte Toxicity is at least 8 µM.
Reply: YES

Task item: Identify whether the reported Hepatocyte Toxicity of the following compound is 8 µM or greater: COc1cc2cc(C(=O)Nc3ccccc3)c(N)nc2cc1OC [MMV006767]
Reply: YES

Task item: State whether the measured Hepatocyte Toxicity reaches 8 µM, counting equality as reaching it, for O=C(Nc1ccc(Cl)c(Cl)c1)Nc1ccc(Cl)c(Cl)c1 [MMV665852]
Reply: NO

Task item: Test whether the compound CN(C)CCCNCc1ccc(-c2ccc(Cl)c(Cl)c2)o1 [MMV673964] records Hepatocyte Toxicity of 8 µM or higher.
Reply: YES

Task item: For this compound, is measured Hepatocyte Toxicity 8 µM or higher? O=C(NC(c1ccccc1)c1ccc2cccnc2c1O)c1ccccc1 (centres unmarked) [MMV666080]
Reply: NO

Task item: Please check the record CCN(CC)CCn1c(=N)n(CC(O)c2ccc(Cl)c(Cl)c2)c2ccccc21.Cl (centres unmarked) [MMV000248] and state if its Hepatocyte Toxicity is at or above 8 µM.
Reply: YES

Task item: For this compound, is measured Hepatocyte Toxicity 8 µM or higher? Cc1ccc(S(=O)(=O)n2cc(-c3ccnc(N)c3)c3cc(Br)cnc32)cc1 [MMV024114]
Reply: YES

Task item: API: above_or_equal(metric=Hepatocyte Toxicity, cutoff=8 µM) for item CC(C)(C)OC(=O)N1CCN(c2ccccc2NC(=O)c2cccc(C(F)(F)F)c2Oc2ccc(F)cc2)CC1 [MMV030666]
Reply: YES

Task item: Evaluate CN1CCN(c2ccc(Nc3c4ccccc4nc4ccccc34)cc2)CC1 [MMV006172] : Hepatocyte Toxicity at minimum 8 µM?
Reply: NO

Task item: Hi team, for O=C(Nc1ccccc1O)c1ccc(Oc2cccc(C(=O)Nc3ccccc3O)c2)cc1 [MMV665888] , is the recorded Hepatocyte Toxicity at or above 8 µM?
Reply: NO
